# Test system: Oat, Wild (wild oat, Avena fatua)
# protocol_description: Test A1 preemergence, Oat, Wild
# Assay type: in vivo
# experimental_context: 125 g ai/ha, 0 to 100 scale, 0 no effect, 100 complete control
Exercise: state measured Plant response rating, Oat, Wild for each of the compounds provided.
API doc: respond with a numeric literal and nothing else, no unit.

The compound listed as CCC1ON=C(c2cc(N(COC(=O)C(C)(C)C)S(=O)(=O)C(F)(F)F)c(C)cc2C)C1CC (stereo not shown) has a reported Plant response rating, Oat, Wild of 10

The compound listed as Cc1cc(C)c(N(COC(=O)C(C)(C)C)S(=O)(=O)C(F)(F)F)cc1C1=NOC2OCCC12 (stereo not shown) has a reported Plant response rating, Oat, Wild of 20

The compound listed as Cc1c(NS(=O)(=O)C(F)(F)F)cc(C2=NOC3(CCCC3)C2)c(C)c1C has a reported Plant response rating, Oat, Wild of 90

The compound listed as Cc1cc(C)c(C2=NOC3COCC23)cc1NS(=O)(=O)C(F)(F)F (stereo not shown) has a reported Plant response rating, Oat, Wild of 20

Attribution: patent US20230278972A1
